Cited source: PubChem BioAssay (NCI)

System: TK-10 renal
Test: NCI-60 one-dose screen, 48 h
Conditions: 10 µM unless noted
Experimental: Growth inhibition of the TK-10 human tumor cell line is measured as a screen for anti-cancer activity. Cells are grown in 96 well plates and exposed to the test compound for 48 hours. Compounds are tested at a single concentration, which is 10^-5 M for most compounds. The reported endpoint is percent growth (GI% or GIPRCNT), where numbers from 0 - 100% represent growth inhibition, and numbers from -100% - 0 represent cell death. For example, a value of 40 represents 60% growth inhibition. […]
This is part of a sample that, as a whole, favours compounds with a hit. Of some 83,000 tested, about 20% had one in any assay. Active and inactive are the calls of the source. The calls were made as follows: active = growth percent below 10; inactive = the rest.
Labels: active, inactive

molecule: COc1ccc(Cn2c(Br)c3c(c2-c2cc(OC)c(OC)c(OC)c2)CCc2sc(NC(=O)c4ccc(OC)cc4)nc2-3)cc1
class-assignment: inactive
//
molecule: NCCOc1ccccc1/C=C1\c2ccccc2-c2ccc([N+](=O)[O-])cc21
class-assignment: active
//
molecule: COc1ccc(CCN2C(=O)CCSC2=S)cc1OC
class-assignment: inactive
//
molecule: CC1=CCC(OC(=O)C(C)(C)CCC(O)(C(=O)OC2(C(C)C)CCC3(C)OC3C2)C(C)C)(C(C)C)CC1 (configuration not stated)
class-assignment: active
//
molecule: CCCSC1=NC2C(N(CC)C(=O)N2CC)N1/N=C/C=C/c1ccccc1[N+](=O)[O-] (configuration not stated)
class-assignment: inactive
//
molecule: O=C(Nc1ccc(N2CCNCC2)cc1)c1[nH]ncc1Nc1cc(C2CC2)ncn1
class-assignment: inactive
//
molecule: COc1ccc(OC)c(N(CCN2C(=O)c3ccccc3C2=O)C(=O)CCl)c1
class-assignment: inactive
//
molecule: COc1ccc(Cn2cc(Cn3cc(C=C4C(=O)NC(=O)NC4=O)c4ccccc43)nn2)cc1
class-assignment: inactive
//
molecule: O=C(Nc1ccc(Cl)cc1F)c1cc(Br)ccc1O
class-assignment: active
//
molecule: O=C1c2cc(I)ccc2Oc2cc([N+](=O)[O-])ccc2N1c1ccc(Cl)cc1F
class-assignment: inactive
//
molecule: CCOC(=O)c1cc2c(n1Cc1ccccc1)-c1oncc1CCC2
class-assignment: inactive
//
molecule: COc1ccc(C(O)(CCC(C)C)C(CN2CCOCC2)c2ccc(Cl)cc2)cc1 (configuration not stated)
class-assignment: inactive
//
molecule: O=C(Nc1ccc(I)cc1F)c1cc(F)ccc1O
class-assignment: active
//
molecule: Cn1nc(C(C)(C)C)cc1NC(=O)Cc1ccc(/C=C2\C(=O)Nc3ccccc32)cc1
class-assignment: inactive
//
molecule: CN1C(=O)N(C)C2(c3ccccc3)OC(=S)NC12c1ccccc1 (configuration not stated)
class-assignment: inactive
//
molecule: CCCN1CCN(c2ccc3nc(-c4ccc5nc(-c6cc(OC)ccc6OC)[nH]c5c4)[nH]c3c2)CC1
class-assignment: inactive
//
molecule: COc1cc(C#N)cc2[nH]c(=O)oc12
class-assignment: inactive
//
molecule: CN(C)c1ccc(/C=C/c2ccnc3c(O)cccc23)cc1
class-assignment: inactive
//
molecule: COc1cc(/C=C/C(=O)c2ccc(Nc3nc(NCCO)nc(N4CCOCC4)n3)cc2)cc(OC)c1OC
class-assignment: inactive
//
molecule: O=C(O)c1cn(C2CC2)c2cc(N3CCN(C(=O)C[n+]4ccccc4)CC3)c(F)cc2c1=O
class-assignment: inactive
//
molecule: OCCNc1nc(Nc2ccc(C3=NN(c4cc(Cl)cc(Cl)c4)C(c4ccc(C(F)(F)F)cc4)C3)cc2)nc(N2CCOCC2)n1 (configuration not stated)
class-assignment: inactive
//
molecule: Cc1nc(Nc2cn[nH]c2C(=O)Nc2ccc(CN3CCN(C)CC3)cc2)c2ccsc2n1
class-assignment: inactive
//
molecule: CCOC(=O)c1cc2c(n1Cc1cccc(OC)c1)-c1oncc1CCC2
class-assignment: inactive
//
molecule: CC(=O)O[C@@H]1/C=C/C(=O)N[C@@H](C)CCC/C=C/[C@@H]2CCC[C@H]21
class-assignment: inactive
//
molecule: O=C(c1nc2ccccc2[nH]1)C1C(c2ccc([N+](=O)[O-])cc2)C2CC3CCCCC3N2[C@@]12C(=O)Nc1cc(Cl)ccc12 (some centres not stated)
class-assignment: inactive
//
molecule: Cc1ccc(Cc2cnc(NC(=O)CN3C(=O)/C(=C\c4ccccc4)SC3=S)s2)cc1
class-assignment: inactive
//
molecule: C[n+]1c2ccccc2nc2ccc(NCCO)cc21
class-assignment: inactive
//
molecule: Cc1cccc2c(=O)c3c(sc12)c(NCCCNCCO)nc1ccccc13
class-assignment: inactive
//
molecule: COc1ccc(-n2c(C(O)c3ccccc3)nn(CN3CCOCC3)c2=S)cc1 (configuration not stated)
class-assignment: inactive
//
molecule: Nc1nc2c(ncn2[C@@H]2O[C@H](CS)[C@@H](O)[C@H]2O)c(=O)[nH]1
class-assignment: inactive
//
molecule: O=Cc1cc2ccccc2nc1Nc1nccs1
class-assignment: inactive
//
molecule: O=S(=O)(Nc1ncccn1)c1ccc(NC2Nc3nc4ccccc4nc3S2)cc1 (configuration not stated)
class-assignment: inactive

###

Test system: RPMI-8226 leukemia
Assay: NCI-60 one-dose screen, 48 h (100 = growth as untreated, 0 = no growth, -100 = all killed)
Settings: 10 µM unless noted
About 83,000 compounds went through this panel and 20% of them were active in at least one assay; those are over-represented in the sample as a whole. Active and inactive are the calls of the source. How the source made its calls: active means growth percent below 10; inactive means the rest.
Each entry below carries its recorded growth.

compound: Cc1cc(Nc2ccc(OCc3ccccc3)cc2)nc2cc(O)ccc12
growth: 6.65% (active)
//
compound: COc1cc(/C=C/C(=O)c2ccc(Cl)cc2)cc(CN2CCCCC2)c1O
growth: 50.9% (inactive)
//
compound: CC1CCCCN1CCCNC(=O)c1ccc2c(c1)sc1nc(-c3ccc(F)cc3)cn12 (configuration not stated)
growth: 86% (inactive)
//
compound: O=C(CSc1ccc2nnc(-c3cccc(F)c3)n2n1)Nc1ccc2c(c1)OCO2
growth: 52.3% (inactive)
//
compound: C#CCn1cc(C=C2C(=O)NC(=O)NC2=O)c2cc(Cl)ccc21
growth: 70.3% (inactive)
//
compound: O=c1oc2ccc(Cl)cc2c(=O)n1-c1ccc(F)cc1F
growth: -1.02% (active)
//
compound: CCCc1c(C)c2sc(=O)[nH]c2[nH]c1=O
growth: 112% (inactive)
//
compound: CCN1C(=O)N(CC)C2Nn3c(s/c(=C\c4ccccc4F)c3=O)=NC21 (configuration not stated)
growth: 54.1% (inactive)
//
compound: O=C(CCc1nnc2sc(Cc3ccccc3Cl)nn12)c1nc2ncccc2[nH]1
growth: 103% (inactive)
//
compound: COc1ccc(S(=O)(=O)N(Cc2ccc3c(n2)C=CC(C)(C)O3)C2CCC2)cc1OC
growth: -47.2% (active)
//
compound: O=C(Nc1ccc(F)c(Cl)c1)Nc1ccc(Cl)c(Cl)c1
growth: 65.8% (inactive)
//
compound: O=C1C(Cl)=C(NCc2ccco2)C(=O)c2ccccc21
growth: 38.9% (inactive)
//
compound: Cc1ccc(S(=O)c2ccc([N+](=O)[O-])c3nonc23)cc1 (configuration not stated)
growth: 91.3% (inactive)
//
compound: COc1cc(/C=C2\CN(S(=O)(=O)c3ccccc3)C/C(=C\c3cc(CN4CCCC4)c(O)c(OC)c3)C2=O)cc(CN2CCCC2)c1O
growth: -13.3% (active)
//
compound: COc1cccc(/C=C/C(=O)c2c(C)nc3ccccc3c2/C=C/c2ccccc2)c1OC
growth: 6.11% (active)
//
compound: CC(C)C[C@H](C(=O)N[C@@H](C)C(N)=O)N1CC=CCN(O)S1(=O)=O
growth: 106% [5 µM] (inactive)
//
compound: COc1ccc(Cn2cc(Cn3c(=O)c(-c4nc5ccccc5[nH]4)cc4ccccc43)nn2)c(OC)c1OC
growth: 16.1% (inactive)
//
compound: COc1cc(CNC(=O)c2ccsc2Nc2ccnc(C(F)(F)F)c2)ccc1O
growth: 91% (inactive)
//
compound: CCOc1cc(Cl)c(C(C)NC(=O)c2cccc(OC)c2)cc1OCC (configuration not stated)
growth: -6.93% (active)
//
compound: Clc1ccc(Nc2scc3[n+]2CCC3)cc1
growth: 98.5% (inactive)
//
compound: CC1=C(CC(=O)c2cccc([N+](=O)[O-])c2)C(=O)c2ccccc2C1=O
growth: -7.18% (active)
//
compound: Oc1c(CN2CCN(c3ccccc3F)CC2)cc(Br)c2cccnc12
growth: -0.421% (active)
//
compound: COc1ccc2oc(=O)cc(Cn3cc(Cn4cnc5c4c(=O)n(C)c(=O)n5C)nn3)c2c1
growth: 103% (inactive)
//
compound: O=C(Nc1ccc(F)cc1F)c1cc(I)ccc1O
growth: -2.64% (active)
//
compound: COc1cccc(C2=NN3C(C2)c2ccccc2OC3c2ccc(/C=C3\SC(=O)NC3=O)cc2)c1 (configuration not stated)
growth: 99.4% (inactive)
//
compound: COc1c2ccoc2c(/C=C/C=O)c2oc(-c3ccccc3)cc(=O)c12
growth: 28% (inactive)
//
compound: CCN1CCN(c2cc(C)c3cc(NC(=O)c4ccc(OC)c(OC)c4)ccc3n2)CC1
growth: 16.7% (inactive)
//
compound: COc1ccc(CCN2C(=O)CCSC2=S)cc1
growth: 8.09% (active)
//
compound: O=C1/C=C/[C@@H](O)[C@@H]2C[C@@H](O)C[C@H]2/C=C/CCCCO1
growth: -39.2% (active)
//
compound: COc1ccc(CCN2C(=O)CCSC2=S)cc1OC
growth: 37.4% (inactive)
//
compound: Nc1ncnc(N)c1NC(=O)c1ccc(OCc2ccccc2)cc1
growth: 105% (inactive)
//
compound: CN1CCN(Cc2ccc(C(=O)Nc3cncc(C#Cc4cnc(N)c5ccccc45)c3)cc2C(F)(F)F)CC1
growth: -41.4% (active)
